Data origin: ChEMBL document CHEMBL3593235

test: Inhibition of alpha glucosidase (unknown origin) using para-nitrophenyl-alpha-D-glucopyranoside as substrate preincubated for 15 mins followed by substrate addition measured after 10 mins by spectrophotometric analysis; set-up: species or system Homo sapiens
pIC50: −log10 of the molar value.
Item-by-item account of pIC50

| SUBSTANCE SMILES | COMPARATIVE SIGN | pIC50 |
| --- | --- | --- |
| O=C(O)CCCCOc1ccc(-c2cc(=O)c3c(O)cc(O)cc3o2)cc1 | < | 3.30 |
| O=C(O)COc1cc(O)cc2oc(-c3ccc(O)cc3)cc(=O)c12 | = | 3.95 |
| O=C(O)CCCCCCCOc1ccc(-c2cc(=O)c3c(O)cc(O)cc3o2)cc1 | < | 3.30 |
| O=C(O)CCCCCCOc1ccc(-c2cc(=O)c3c(O)cc(O)cc3o2)cc1 | < | 3.30 |
| O=C(O)CCCCCCCOc1cc(O)c2c(=O)cc(-c3ccc(O)cc3)oc2c1 | = | 4.74 |
| O=C(O)CCCCOc1cc(O)cc2oc(-c3ccc(O)cc3)cc(=O)c12 | = | 4.41 |
| O=C(O)CCCCCCOc1cc(O)c2c(=O)cc(-c3ccc(O)cc3)oc2c1 | = | 4.04 |
| O=C(O)COc1cc(O)c2c(=O)cc(-c3ccc(O)cc3)oc2c1 | = | 4.21 |
| O=C(O)CCCCOc1cc(O)c2c(=O)cc(-c3ccc(O)cc3)oc2c1 | = | 4.47 |
| O=C(O)CCCCCCOc1cc(O)cc2oc(-c3ccc(O)cc3)cc(=O)c12 | = | 4.29 |
| O=C(O)CCCCCOc1ccc(-c2cc(=O)c3c(O)cc(O)cc3o2)cc1 | < | 3.30 |
| O=C(O)CCCOc1cc(O)c2c(=O)cc(-c3ccc(O)cc3)oc2c1 | = | 4.35 |
